Assay: Intrinsic clearance in Balb/c mouse liver microsomes at 100 uM
Type: ADME, Microsome
Condition Label: read-out: CLH
Test Readout: CLint scaled at 100 µM
# output: number + unit

Prompt: What does the data say about its CLint scaled at 100 µM? Entry: "Cc1cc2oc(=O)cc(-c3cccc(N)c3)c2c(C)c1-c1ccc(CN2CCOCC2)cc1.Cl.Cl"
Response: 80.3 mL/min/kg

* * *

Assay: Permeability of the compound from apical to basolateral side of human Caco2 cells at 10 uM
Format: ADME, cell-based
Condition Label: Caco-2, read-out: permeability
Test Readout: Papp A→B at 10 µM

Prompt: Which Papp A→B at 10 µM reading was recorded for the compound "Cc1cc2oc(=O)cc(-c3cccc(N)c3)c2c(C)c1-c1ccc(CN2CCOCC2)cc1.Cl.Cl" ?
Response: 345 nm/s

* * *

Assay: Half life in Balb/c mouse at 1 mg/kg, iv
Type: ADME, organism-based
Design: dose 1 mg/kg, route intravenous
Condition Label: in vivo
Test Readout: half-life (h)
Give the quantity in h, number only.

Prompt: Dear colleague, I am looking for the recorded half-life of the following compound: "Cc1cc2oc(=O)cc(-c3cccc(N)c3)c2c(C)c1-c1ccc(CN2CCOCC2)cc1.Cl.Cl"
Response: 1.45

* * *

Assay: Metabolic stability of the compound in Balb/c mouse plasma assessed as compound remaining at 1 uM after 8 hrs
Assay type: ADME, cell-free
Condition Label: read-out: Stability
Test Readout: remaining at 8 h, 1 µM

Prompt: Please give the measured remaining at 8 h, 1 µM for this compound: "Cc1cc2oc(=O)cc(-c3cccc(N)c3)c2c(C)c1-c1ccc(CN2CCOCC2)cc1.Cl.Cl"
Response: 112%

* * *

Assay: AUC (0 to infinity) in Balb/c mouse at 10 mg/kg, po
Assay type: ADME, organism-based
Design: time infinity, dose 10 mg/kg, route oral
Condition Label: plasma
Test Readout: AUC(0-inf) (ng·h/mL)
Numeric answer only, unit ng·h/mL assumed.

Prompt: Fill in: AUC(0-inf) of "Cc1cc2oc(=O)cc(-c3cccc(N)c3)c2c(C)c1-c1ccc(CN2CCOCC2)cc1.Cl.Cl" is ___
Response: 3190

* * *

So I've got a bunch of compounds here, and I need their fraction unbound at 5 h, 1 µM values.
Assay: Plasma protein binding in human at 1 uM after 5 hrs
Format: ADME, cell-free
Condition Label: read-out: PPB (converted)
Format: numeric value only, no unit, no commentary.

Prompt: Sample "Cc1cc2oc(=O)cc(-c3ccccc3)c2c(C)c1-c1ccc(CO)cc1" — what was its fraction unbound at 5 h, 1 µM?
Response: 0.006

Prompt: Given the entry "Cc1cc2oc(=O)cc(-c3ccccc3)c2c(C)c1-c1ccncc1" , report its measured fraction unbound at 5 h, 1 µM.
Response: 0.012

Prompt: Need fraction unbound at 5 h, 1 µM, item "Cc1cc2oc(=O)cc(-c3ccccc3)c2c(C)c1-c1ccc(CN2CCOCC2)cc1"
Response: 0.014

Prompt: Given the compound "Cc1cc2oc(=O)cc(-c3cccc(N)c3)c2c(C)c1-c1ccc(CN2CCOCC2)cc1" , what is its reported fraction unbound at 5 h, 1 µM?
Response: 0.013

* * *

Assay: Half life in Balb/c mouse liver microsomes at 100 uM
Type: ADME, Microsome
Test Readout: half-life at 100 µM (h)
Give just the number in h; leave the unit off.

Prompt: # query: half-life at 100 µM of entry "Cc1cc2oc(=O)cc(-c3cccc(N)c3)c2c(C)c1-c1ccc(CN2CCOCC2)cc1.Cl.Cl"
Response: 8.63

* * *

Assay: Clearance in Balb/c mouse at 10 mg/kg, po
Type: ADME, organism-based
Design: dose 10 mg/kg, route oral
Condition Label: in vivo
Test Readout: CL/F (mL/min/kg)
Expressed in mL/min/kg, but write only the number.

Prompt: // CL/F lookup, key: "Cc1cc2oc(=O)cc(-c3cccc(N)c3)c2c(C)c1-c1ccc(CN2CCOCC2)cc1.Cl.Cl"
Response: 52.3

* * *

Assay: MRTlast in Balb/c mouse at 1 mg/kg, iv
Type: ADME, organism-based
Set-up: dose 1 mg/kg, route intravenous
Condition Label: in vivo
Test Readout: MRT last (h)
Give a bare numeral; the unit h is implied.

Prompt: Reported MRT last, molecule "Cc1cc2oc(=O)cc(-c3cccc(N)c3)c2c(C)c1-c1ccc(CN2CCOCC2)cc1.Cl.Cl" : ____
Response: 1.36

* * *

For each entry below, report its solubility value.
Assay: Solubility in water
Assay type: physicochemical
Value expressed in µM; do not type the unit.

Prompt: Recorded solubility of "Cc1cc2oc(=O)cc(-c3ccccc3)c2c(C)c1-c1ccc(CN2CCOCC2)cc1" , please.
Response: 36.1

Prompt: Endpoint output: solubility of "Cc1cc2oc(=O)cc(-c3ccccc3)c2c(C)c1-c1ccncc1" . Value?
Response: 3.2

Prompt: What does the record list as solubility for "Cc1cc2oc(=O)cc(-c3cccc(N)c3)c2c(C)c1-c1ccc(CN2CCOCC2)cc1" ?
Response: 89.3

Prompt: Recorded solubility of "Cc1cc2oc(=O)cc(-c3ccccc3)c2c(C)c1-c1ccc(CO)cc1" , please.
Response: 0.2

* * *

Assay: Permeability of the compound from basolateral to apical side of human Caco2 cells at 10 uM
Type: ADME, cell-based
Condition Label: Caco-2, read-out: permeability
Test Readout: Papp B→A at 10 µM (nm/s)
Your answer is read as nm/s, so omit the unit and give the number.

Prompt: Param item = "Cc1cc2oc(=O)cc(-c3cccc(N)c3)c2c(C)c1-c1ccc(CN2CCOCC2)cc1.Cl.Cl" ; retrieve measured Papp B→A at 10 µM.
Response: 769

* * *

Assay: AUClast in Balb/c mouse at 10 mg/kg, po
Assay type: ADME, organism-based
Set-up: time 0 - last, dose 10 mg/kg, route oral
Condition Label: plasma
Test Readout: AUC(0-t) (ng·h/mL)
Value expressed in ng·h/mL; do not type the unit.

Prompt: Requested field: AUC(0-t). Item: "Cc1cc2oc(=O)cc(-c3cccc(N)c3)c2c(C)c1-c1ccc(CN2CCOCC2)cc1.Cl.Cl"
Response: 3180

* * *

Assay: Half life in Balb/c mouse at 10 mg/kg, po
Assay type: ADME, organism-based
Design: dose 10 mg/kg, route oral
Condition Label: in vivo
Test Readout: half-life (h)
I only need the number, in h, no unit after it.

Prompt: Looking for the measured half-life of "Cc1cc2oc(=O)cc(-c3cccc(N)c3)c2c(C)c1-c1ccc(CN2CCOCC2)cc1.Cl.Cl" , can you help?
Response: 2.71
